- PROTOCOL NOTES: Pharmacokinetic analysis Protocol 2 (blood and brain)
- Format: in vivo, female Balb C mice
- CONDITION SET: female, Balb C, mouse, whole blood, iv; PK protocol 2, 2 mg/kg i.v., blood, 0-24 h; read-out: AUCBLOOD i.v.
PARAMETER: AUC (ng·h/mL)
Provide the reading as a plain figure in ng·h/mL.

get_value(item= `CO[C@H]1C[C@@H]2CC[C@@H](C)[C@@](O)(O2)C(=O)C(=O)N2CCCC[C@H]2C(=O)O[C@H]([C@H](C)C[C@@H]2CC[C@@H](O)[C@H](OC)C2)CC(=O)[C@H](C)/C=C(\C)[C@@H](O)[C@@H](OC)C(=O)[C@H](C)C[C@H](C)/C=C/C=C/C=C/1C` , readout=AUC) returns 24900

* * *

- PROTOCOL NOTES: Human Liver Microsomal (HLM) stability assay
- Format: in vitro ADME
- CONDITION SET: human, liver microsomes, pH 7.4; 0.001 mM, 0.25 mg/mL protein, NADPH, 37° C.; read-out: HLM stability: T½ min
Assign half-life at 0.001 mM to each entry below.
The answer is to be given in min; state only the numeric part.

Entry CO[C@H]1CC2CC[C@@H](C)[C@@](O)(O2)C(=O)C(=O)N2CCCC[C@H]2C(=O)O[C@H]([C@@H](C)CC2CCC(O)CC2)CC(=O)[C@@H](C)/C=C(\C)[C@H](O)[C@H](O)C(=O)[C@@H](C)C[C@H](C)/C=C/C=C/C=C/1C (some centres unmarked) ; half-life at 0.001 mM = 27

What the record says about `CO[C@H]1C[C@@H]2CC[C@@H](C)[C@@](O)(O2)C(=O)C(=O)N2CCCC[C@H]2C(=O)O[C@H]([C@H](C)C[C@@H]2CC[C@@H](O)[C@H](OC)C2)CC(=O)[C@H](C)/C=C(\C)[C@@H](O)[C@@H](OC)C(=O)[C@H](C)C[C@H](C)/C=C/C=C/C=C/1C` : half-life at 0.001 mM is 40

* * *

- ASSAYED SYSTEM: FKBP12 (Homo sapiens, UniProt P62942)
- Sequence (P62942 whole entry, species assumed): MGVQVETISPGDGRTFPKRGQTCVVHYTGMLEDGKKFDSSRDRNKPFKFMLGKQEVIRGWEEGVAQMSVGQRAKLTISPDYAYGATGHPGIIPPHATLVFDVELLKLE
- PROTOCOL NOTES: In vitro FKBP12 binding assay (GdnHCl unfolding)
- CONDITION SET: relative to literature Kd of rapamycin 0.2 nM
Hi there, I'd appreciate the recorded Kd for every entry that follows.
Use nM as the unit, but write only the number.

The reported value for COC1CC2CCC(C)C(O)(O2)C(=O)C(=O)N2CCCCC2C(=O)OC(C(C)CC2CCC(O)CC2)CC(=O)C(C)C=C(C)C(O)C(OC)C(=O)C(C)CC(C)C=CC=CC=C1C (centres unmarked) in terms of Kd is 0.7

Given item CO[C@H]1CC2CC[C@@H](C)[C@@](O)(O2)C(=O)C(=O)N2CCCC[C@H]2C(=O)O[C@H]([C@@H](C)CC2CCC(O)CC2)CC(=O)[C@@H](C)/C=C(\C)[C@H](O)[C@H](O)C(=O)[C@@H](C)C[C@H](C)/C=C/C=C/C=C/1C (some centres unmarked) , the value recorded as its Kd is 0.8

* * *

- PROTOCOL NOTES: Caco-2 permeation assay
- CONDITION SET: human, Caco-2, pH 7.4
PARAMETER: efflux ratio at 1 h, 0.01 mM
Form rule: numeric answer, no unit written next to it.

// efflux ratio at 1 h, 0.01 mM lookup, compound = CO[C@H]1CC2CC[C@@H](C)[C@@](O)(O2)C(=O)C(=O)N2CCCC[C@H]2C(=O)O[C@H]([C@@H](C)CC2CCC(O)CC2)CC(=O)[C@@H](C)/C=C(\C)[C@H](O)[C@H](O)C(=O)[C@@H](C)C[C@H](C)/C=C/C=C/C=C/1C (stereo partly shown) , result: 91

// data source = patent US20100061994A1
